# protocol_notes: chemical genetic growth profiling, strain panel (AID 1159580);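 further: tested at 20 µM; growth read once vehicle control cultures reached saturation at 30 °C; lower values mean less growth of the strain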
# condition_description: S. cerevisiae deletion strains, growth OD, locus YDL101C, strain DUN1
Out of some 5,500 compounds screened, about 2,000 (36%) were called active. Another 18% or so got no clear call; they are omitted. No stated cut-off is given here; in the data, active means normalized growth mostly below about 0.91 (no sharp cut-off); inconclusive means no clear call, values can overlap the other calls; inactive means mostly above about 0.92. Some of the results follow.
Hello, when you answer, please use one of the following outcomes: active, inactive

compound	category_label
CN(/N=C\c1ccccc1)c1ncc(C(F)(F)F)cc1Cl	inactive
CCC(Cc1c(I)cc(I)c(N)c1I)C(=O)O (stereo not given)	inactive
CN1CCN(C=Nc2ncc(C(F)(F)F)cc2Cl)CC1	inactive
C=C(C)[C@H]1CC=C(C(=O)O)CC1	inactive

Query: Look up the recorded call for Cc1ccc(S(=O)(=O)CCSC2=CC(=O)CC(C)(C)S2)cc1 in this test.
Result: inactive

Query: Look up the recorded call for CC(C)c1ccc(NC(=S)NC(=O)c2ccccc2)cc1 in this test.
Result: inactive

Query: Look up the recorded call for Cc1cccc(Cl)c1/C=N\NC(N)=S in this test.
Result: active

Query: Look up the recorded call for CCCc1c(C(=O)NC2Cc3ccccc3C2)cnn1-c1ccccc1 in this test.
Result: inactive

Query: Look up the recorded call for CCCCCCNC(=O)NCCCCCC in this test.
Result: inactive

Query: Look up the recorded call for CCCc1c(C(=O)Sc2ccccn2)cnn1-c1ccc(Cl)cc1 in this test.
Result: inactive

Cited source: PubChem BioAssay AID1159580
